Test system: Escherichia coli
Experiment: Potentiation of colistin-induced antimicrobial activity against colistin resistant Escherichia coli 25922 harbouring mcr-1 gene assessed as colistin MIC at 5 uM incubated for 16 hrs by broth microdilution method
Format: functional
// values below are reported MIC
Respond numerically; units are µg/mL and should not be typed.

Consider the reported MIC for these molecules:
- smiles-string: "O=C1Nc2cc(Br)ccc2/C1=C1/Nc2c(Cl)cccc2/C1=N\\O"
  target-entity: "Escherichia coli"
  units: "µg/mL"
  MIC: 2
- smiles-string: "O=C1Nc2cc(Br)ccc2/C1=C1/Nc2cc(Cl)ccc2/C1=N\\O"
  target-entity: "Escherichia coli"
  units: "µg/mL"
  MIC: 2
- smiles-string: "O=C1Nc2cc(Br)ccc2/C1=C1/Nc2c(F)cccc2/C1=N\\O"
  target-entity: "Escherichia coli"
  units: "µg/mL"
  MIC: 2
- smiles-string: "O=C1Nc2cc(Br)ccc2/C1=C1/Nc2ccccc2/C1=N\\O"
  target-entity: "Escherichia coli"
  units: "µg/mL"
  MIC: 2

Return value of MIC for input `O=C1Nc2cc(Br)ccc2/C1=C1/Nc2c(Br)cccc2/C1=N\O` , no commentary.
1

====

Tested on: Klebsiella pneumoniae
Test: Potentiation of colistin-induced antibacterial activity against colistin-resistant Klebsiella pneumoniae B9 assessed as fold change in colistin MIC at 5 uM incubated for 16 hrs by broth microdilution method
Format: functional
// values below are reported fold change (FC)
Form rule: numeric answer, no unit written next to it.

Consider the reported fold change (FC) for these molecules:
- molecule: "O=C1Nc2cc(Br)ccc2/C1=C1/Nc2c(cccc2C(F)(F)F)/C1=N\\O"
  fold change (FC): 256
- molecule: "O=C1Nc2cc(Br)ccc2/C1=C1/Nc2ccc(C(F)(F)F)cc2/C1=N\\O"
  fold change (FC): 64
- molecule: "Cc1cccc2c1NC(=C1\\C(=O)Nc3cc(Br)ccc31)/C2=N/O"
  fold change (FC): 128
- molecule: "O=C1Nc2cc(Br)ccc2/C1=C1/Nc2cc(Br)ccc2/C1=N\\O"
  fold change (FC): 64
- molecule: "O=C1Nc2cc(Br)ccc2/C1=C1/Nc2ccccc2/C1=N\\O [6BIO]"
  fold change (FC): 512
- molecule: "O=C1Nc2cc(Br)ccc2/C1=C1/Nc2ccc(Br)cc2/C1=N\\O"
  fold change (FC): 128
- molecule: "O=C1Nc2cc(Br)ccc2/C1=C1/Nc2c(Cl)cccc2/C1=N\\O"
  fold change (FC): 512
- molecule: "O=C1Nc2cc(Cl)ccc2/C1=C1/Nc2ccccc2/C1=N\\O"
  fold change (FC): 128
- molecule: "O=C1Nc2cc(Br)ccc2/C1=C1/Nc2cc(Cl)ccc2/C1=N\\O"
  fold change (FC): 1024
- molecule: "O=C1Nc2cc(Br)ccc2/C1=C1/Nc2c(Br)cccc2/C1=N\\O"
  fold change (FC): 512

Now for a further molecule.
Return value of fold change (FC) for input `O=C1Nc2cc(Br)ccc2/C1=C1/Nc2cc(F)c(F)cc2/C1=N\O` , no commentary.
512

====

Test system: Klebsiella pneumoniae
Experiment: Potentiation of colistin-induced antibacterial activity against colistin-resistant Klebsiella pneumoniae B9 assessed as fold change in colistin MIC at 3 uM incubated for 16 hrs by broth microdilution method
Type: functional
// values below are reported fold change (FC)
Form rule: numeric answer, no unit written next to it.

Consider the reported fold change (FC) for these compounds:
- smiles-string: "O=C1Nc2cc(Br)ccc2/C1=C1/Nc2c(Cl)cccc2/C1=N\\O"
  fold change (FC): 256
- smiles-string: "O=C1Nc2cc(Br)ccc2/C1=C1/Nc2ccc(F)cc2/C1=N\\O"
  fold change (FC): 16
- smiles-string: "O=C1Nc2cc(Br)ccc2/C1=C1/Nc2ccc(Cl)cc2/C1=N\\O"
  fold change (FC): 32
- smiles-string: "O=C1Nc2cc(Br)ccc2/C1=C1/Nc2ccccc2/C1=N\\O"
  fold change (FC): 16
- smiles-string: "O=C1Nc2cc(Br)ccc2/C1=C1/Nc2c(Br)cccc2/C1=N\\O"
  fold change (FC): 256
- smiles-string: "O=C1Nc2cc(Br)ccc2/C1=C1/Nc2cc(F)c(F)cc2/C1=N\\O"
  fold change (FC): 128
- smiles-string: "O=C1Nc2cc(Br)ccc2/C1=C1/Nc2cc(Cl)ccc2/C1=N\\O"
  fold change (FC): 256
- smiles-string: "O=C1Nc2cc(Br)ccc2/C1=C1/Nc2c(F)cccc2/C1=N\\O"
  fold change (FC): 256

Return value of fold change (FC) for input `O=C1Nc2cc(Br)ccc2/C1=C1/Nc2c(cccc2C(F)(F)F)/C1=N\O` , no commentary.
128
